system.name: SARS-CoV-2 M^pro (Severe acute respiratory syndrome coronavirus 2, UniProt P0DTD1)
measurement.notes: biochemical
measurement.setup: read-out: IC50 (μM) at S/KM 1/2
observable: IC50 (µM)
Give bare numbers, in µM.

Summary for this compound, COc1ccc(CN2C(=O)NC(=O)/C(=C\c3ccco3)C2=O)cc1 [CDE0972-G011] : IC50 is 2.17

---

Consider the following compounds; for each one, report its IC50.
system.name: SARS-CoV-2 M^pro (Severe acute respiratory syndrome coronavirus 2, UniProt P0DTD1)
measurement.notes: biochemical
measurement.setup: IC50 (μM) at S/KM 2
Answers are plain numbers, in µM.

Past entries and their recorded results:
1) O=C(NCc1n[nH]c(=S)n1-c1ccc(Br)cc1)c1ccc(Cl)cc1Cl = 5.83
2) O=c1sc2ccccc2n1Cc1n[nH]c(=S)n1-c1ccccc1 = 8.97
3) O=C1NC(=O)C(=Cc2ccc(-c3cccc(Cl)c3)o2)C(=O)N1 = 0.34

Respectfully, I request IC50 for each entry included below.
1. O=C(COc1ccc(Cl)cc1)NCc1n[nH]c(=S)n1-c1ccc(Br)cc1
2. O=C1NC(=O)C(=Cc2ccc(-c3cccc(C(F)(F)F)c3)o2)C(=O)N1
3. O=C1NC(=O)N(Cc2ccccc2)C(=O)C1=Cc1ccco1

Outgoing:
3.36
0.53
0.55

Respectfully, I request IC50 for each entry included below.
1. O=C(Oc1cncc(Cl)c1)c1sccc1Cl
2. CCOc1cc(C(=O)NCc2n[nH]c(=S)n2-c2ccc(Br)cc2)cc(OCC)c1OCC

Outgoing:
1: 0.33; 2: 2.17
